Reference source: ChEMBL document CHEMBL1201862

Tested on: CCRF-CEM
protocol.summary: NCI tumour cell line growth inhibition, 48 h
Active and inactive are the calls of the source. No stated cut-off is given here; in the data, active = GI50 up to about 1.1 µM and inactive = higher.
Select the correct class. Options are True for active, False for inactive and nothing else.

Sample answers from the record:
COc1cc(-c2ccc(Nc3ccccc3C(=O)O)c(OC)c2)ccc1Nc1ccccc1C(=O)O :: False
O=[N+]([O-])c1cccc(C2ON2C2CCCCC2)c1 (stereo not given) :: False
COc1ccc(C[C@@H]2Cc3cc(OC)c(OC)cc3CN2C)cc1 :: False
COC(=O)C1=C(O)C(O)=C(C(=O)OC)CC1 :: False
Cc1cc2c(c(C(=O)NCCC(=O)N[C@@H](C)C(=O)OCc3ccccc3)c1)Oc1c(cc(C)cc1C(=O)NCCC(=O)N[C@@H](C)C(=O)OCc1ccccc1)S2 :: False

Which outcome did this test record for the compound `COc1ccc(C(=O)C/C(=N/NC(N)=S)C(=O)Nc2ccccc2)cc1` ? False

Which outcome did this test record for the compound `c1ccc2c(NCCCCCCCCNc3cccc4ccccc34)cccc2c1` ? False

Which outcome did this test record for the compound `CSc1ccc(/C=C2\N=C(c3ccccc3)N(c3nc4ccc(Sc5ccccc5)cc4[nH]3)C2=O)cc1` ? False

Which outcome did this test record for the compound COC(=O)C1(Cc2cccc(C)c2)Cc2c(C)cccc2C1=O (stereo not given) ? False

Which outcome did this test record for the compound C[C@]12CCNC(=O)C=C1CC[C@@H]1C2CC[C@@]2(C)C1CC[C@@H]2OC(=O)COc1ccc(N(CCCl)CCCl)cc1 (stereo not given in full) ? True

Which outcome did this test record for the compound `CC(C)/C(Cl)=N\OC(=O)Nc1cccc(F)c1` ? False
